# System: Rhizoctonia solani
# Experiment description: Antifungal activity against Rhizoctonia solani assessed as inhibition rate at 50 ug/mL
# Type: functional
What inhibition at 50 µg/mL was measured for each of the following?
Give bare numbers, in %.

Example entries and their recorded answers appear below.
Asked: May I ask what inhibition at 50 µg/mL has been recorded for CO/N=C(/C(=O)OC)c1ccccc1CSc1nc2nc(C)cc(C)n2n1 ?
Given back: 69

Asked: Given the compound CO/N=C(/C(=O)OC)c1ccccc1COc1ccccc1C , what is its reported inhibition at 50 µg/mL?
Given back: 70

Asked: Record request: inhibition at 50 µg/mL value, item CO/C=C(/C(=O)OC)c1ccccc1CSc1nc2ccccc2o1
Given back: 78

Asked: Record request: inhibition at 50 µg/mL value, item CO/N=C(/C(=O)OC)c1ccccc1CSc1nc2ccccc2s1
Given back: 82

Asked: Bench note: what inhibition at 50 µg/mL did CO/N=C(/C(=O)OC)c1ccccc1CSc1nnc(CSc2nc3nc(C)cc(C)n3n2)s1 show?
Given back: 78

Consider the record given below.
Asked: Give its inhibition at 50 µg/mL value. Item: CO/C=C(/C(=O)OC)c1ccccc1CSc1nc2ccccc2[nH]1
Given back: 78
